- SYSTEM: serine racemase (SR) in 1321N1 cells (Homo sapiens, UniProt Q9GZT4)
- Sequence (Q9GZT4 1-340): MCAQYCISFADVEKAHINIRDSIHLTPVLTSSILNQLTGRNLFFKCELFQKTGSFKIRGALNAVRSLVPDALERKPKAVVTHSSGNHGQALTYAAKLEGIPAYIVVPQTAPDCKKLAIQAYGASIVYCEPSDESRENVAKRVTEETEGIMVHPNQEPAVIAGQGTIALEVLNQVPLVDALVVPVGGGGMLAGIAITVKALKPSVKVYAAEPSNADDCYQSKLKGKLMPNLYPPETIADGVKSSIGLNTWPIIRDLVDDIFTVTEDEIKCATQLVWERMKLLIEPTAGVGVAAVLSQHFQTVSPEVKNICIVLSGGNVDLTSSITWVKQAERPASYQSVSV
- TEST PROTOCOL: CE-LIF measurement of intra-cellular D-Ser production in 1321N1 cells
REPORTED PROPERTY: EC50
Returns: string containing the numeric result and its unit.

Input N[C@@H](CO)C(=O)O [L-Ser, L-serine] . Output EC50: 9.16 mM
